Could you please report measured phosphorylation enrichment for the items listed next?
TESTED_ON: EPHB1 (UniProt P54762)
Sequence (P54762 whole entry, looked up): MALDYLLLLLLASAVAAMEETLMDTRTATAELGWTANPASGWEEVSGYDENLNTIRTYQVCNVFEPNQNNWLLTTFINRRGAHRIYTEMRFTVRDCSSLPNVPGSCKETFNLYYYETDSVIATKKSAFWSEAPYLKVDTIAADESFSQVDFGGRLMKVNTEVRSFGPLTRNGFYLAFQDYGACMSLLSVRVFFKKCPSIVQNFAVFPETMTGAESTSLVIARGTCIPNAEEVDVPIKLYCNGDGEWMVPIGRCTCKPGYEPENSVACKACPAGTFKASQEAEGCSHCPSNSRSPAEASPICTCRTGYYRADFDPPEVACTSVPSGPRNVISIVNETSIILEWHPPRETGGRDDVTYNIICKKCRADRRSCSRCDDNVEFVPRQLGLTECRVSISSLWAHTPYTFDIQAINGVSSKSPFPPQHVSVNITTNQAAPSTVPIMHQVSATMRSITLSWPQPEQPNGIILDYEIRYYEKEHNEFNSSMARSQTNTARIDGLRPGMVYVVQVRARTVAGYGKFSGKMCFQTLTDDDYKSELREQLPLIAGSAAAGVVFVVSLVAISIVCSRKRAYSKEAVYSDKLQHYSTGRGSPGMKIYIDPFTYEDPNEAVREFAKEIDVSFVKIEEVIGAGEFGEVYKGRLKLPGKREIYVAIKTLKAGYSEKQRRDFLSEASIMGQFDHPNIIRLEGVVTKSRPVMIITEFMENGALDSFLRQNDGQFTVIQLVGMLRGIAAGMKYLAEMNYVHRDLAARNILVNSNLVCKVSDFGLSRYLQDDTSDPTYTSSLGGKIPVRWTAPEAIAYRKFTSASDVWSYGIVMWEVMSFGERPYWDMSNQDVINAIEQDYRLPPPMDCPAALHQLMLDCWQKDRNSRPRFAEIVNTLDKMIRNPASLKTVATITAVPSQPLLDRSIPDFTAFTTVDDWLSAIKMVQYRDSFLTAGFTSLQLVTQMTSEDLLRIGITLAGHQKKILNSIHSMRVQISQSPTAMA
ASSAY_COMMENT: phosphorylation enrichment, bacterial display (enrichment ratio); higher = better substrate or ligand; peptides without Tyr show the background;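 note: 11-residue human phosphosite peptides and single-mutation variants displayed on the E. coli surface, counted by deep sequencing, each peptide's frequency after selection divided by its frequency in the unselected input library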;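 note: frequency after pTyr selection over input frequency; kinase dosed for 20-30% of maximal phosphorylation in three min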
Form field (numeric): enter value without unit.

**Query** Which measured phosphorylation enrichment value corresponds to LEVPLYKNGVK [CPS1_Y1069_A1065E] ?
**Result** 0.715

**Query** Which measured phosphorylation enrichment value corresponds to LGEGSYGKVKE [STK11_Y60] ?
**Result** 1.29

**Query** Which measured phosphorylation enrichment value corresponds to RGLQVYHRRNA [LRP2_Y2010] ?
**Result** 0.755

**Query** Which measured phosphorylation enrichment value corresponds to PLTKVYVVEGS [ZMPSTE24_Y253] ?
**Result** 0.487

**Query** Which measured phosphorylation enrichment value corresponds to SHSMKYFDTAV [HLA-C_Y31_R30K] ?
**Result** 0.36

**Query** Which measured phosphorylation enrichment value corresponds to RDEHGYISRCF [HSPB1_Y133_Q128R] ?
**Result** 0.789

**Query** Which measured phosphorylation enrichment value corresponds to KEKLCYVALDF [ACTA1_Y220] ?
**Result** 0.737

**Query** Which measured phosphorylation enrichment value corresponds to PHIKTYMRPSP [TDP1_Y497] ?
**Result** 0.645

**Query** Which measured phosphorylation enrichment value corresponds to SMEGLYSSTQD [CLIC5_Y111] ?
**Result** 1.94

**Query** Which measured phosphorylation enrichment value corresponds to DPADRYLIEQC [CDKL5_Y286_T288I] ?
**Result** 0.626

**Query** Which measured phosphorylation enrichment value corresponds to DLDLTYIYPNI [PTEN_Y27] ?
**Result** 1.71

**Query** Which measured phosphorylation enrichment value corresponds to IIEDPYYGNDF [ACP1_Y132_S137F] ?
**Result** 0.683

**Query** Which measured phosphorylation enrichment value corresponds to AIIGIYNLRDD [CDH23_Y2949_I2950N] ?
**Result** 0.481

**Query** Which measured phosphorylation enrichment value corresponds to CLNAIYQNNLT [GSR_Y158_R153C] ?
**Result** 0.622

**Query** Which measured phosphorylation enrichment value corresponds to ATATDYHTTSH [SLC4A1_Y46] ?
**Result** 0.31

**Query** Which measured phosphorylation enrichment value corresponds to AIDDKYSRREE [SART1_Y685] ?
**Result** 0.431

**Query** Which measured phosphorylation enrichment value corresponds to CGQDPYIRELG [UROS_Y19] ?
**Result** 0.674

**Query** Which measured phosphorylation enrichment value corresponds to QEGPEYWDGNT [HLA-B_Y83_R86G] ?
**Result** 0.762

**Query** Which measured phosphorylation enrichment value corresponds to PSQRHYVYYYS [PTEN_Y174_R173H] ?
**Result** 1.72

**Query** Which measured phosphorylation enrichment value corresponds to ARSHIYTFSSC [MEFV_Y741_A744S] ?
**Result** 0.519

**Query** Which measured phosphorylation enrichment value corresponds to GRQVIYTENER [GPR143_Y231_G229V] ?
**Result** 0.441

**Query** Which measured phosphorylation enrichment value corresponds to SECCKYKTDNP [OSMR_Y689_I691T] ?
**Result** 0.472

**Query** Which measured phosphorylation enrichment value corresponds to KYACSYTPVKA [FLNB_Y708_T703K] ?
**Result** 0.473

**Query** Which measured phosphorylation enrichment value corresponds to VVLVSYVPFSQ [SH2B1_Y624_S627F] ?
**Result** 0.716

**Query** Which measured phosphorylation enrichment value corresponds to LFEDRYLLGPS [ASS1_Y87_T91P_YF] ?
**Result** 0.857

**Query** Which measured phosphorylation enrichment value corresponds to YRQLQYCPSVE [CTNND2_Y508] ?
**Result** 0.661

**Query** Which measured phosphorylation enrichment value corresponds to SFPPTYRYERG [INPPL1_Y661] ?
**Result** 0.362

**Query** Which measured phosphorylation enrichment value corresponds to LHSEAYLKYIE [PBRM1_Y1610] ?
**Result** 0.753

**Query** Which measured phosphorylation enrichment value corresponds to YTGNTYRVGDT [FN1_Y106] ?
**Result** 0.448
